Give AC50 for every item shown.
study.target: Cytochrome P450 2D6 (Homo sapiens);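 also: CYP2D6 member of a cytochrome P450 panel assay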
Sequence (P10635 whole entry): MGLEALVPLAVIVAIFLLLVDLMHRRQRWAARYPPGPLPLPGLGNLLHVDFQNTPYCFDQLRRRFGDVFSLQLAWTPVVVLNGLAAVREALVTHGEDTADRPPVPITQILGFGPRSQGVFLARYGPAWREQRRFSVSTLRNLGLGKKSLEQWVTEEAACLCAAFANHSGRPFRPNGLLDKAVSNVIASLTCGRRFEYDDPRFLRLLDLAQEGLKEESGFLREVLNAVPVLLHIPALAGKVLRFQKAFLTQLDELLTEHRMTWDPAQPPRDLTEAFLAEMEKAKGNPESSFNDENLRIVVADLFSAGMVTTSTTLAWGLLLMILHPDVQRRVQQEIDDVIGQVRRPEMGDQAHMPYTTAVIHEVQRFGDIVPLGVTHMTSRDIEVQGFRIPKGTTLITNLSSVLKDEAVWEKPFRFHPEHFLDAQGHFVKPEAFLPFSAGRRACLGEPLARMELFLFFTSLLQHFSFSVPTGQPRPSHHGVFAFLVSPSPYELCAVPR
Structures can show the parent of a compound that is named as a salt.

input: I would be grateful if you could share the reported AC50 for CCOCCN1CCC(OC(C)=O)C(C)C1 (stereo not given) .
output: 12.6 µM (inconclusive)

input: Fill blank: measured AC50 of the molecule COCC(C)NCc1cccc(C)c1 (stereo not given) is ____.
output: 14.1 µM (inconclusive)

input: Can you share its AC50? I mean this molecule: c1ncc(-c2ccoc2)c(NC2CC2)n1
output: 25.1 µM (inconclusive)

input: Please give the measured AC50 for this molecule: CCNc1ncc2nc(-c3cn(C)c4ccccc34)c(=O)n(C)c2n1
output: 12.6 µM (inconclusive)

input: State the recorded AC50 for this entry: CCc1cc2c(nc1CC)CCN(CC/C(C)=N/OC[C@@H](O)[C@@H]1O[C@@H]3OC(C)(C)O[C@@H]3[C@H]1O)C2
output: 6.31 µM (inconclusive)

input: Name the recorded AC50 for N#Cc1ccc(C(c2nnnn2C2CCCC2)N2CCC(Cc3ccccc3)CC2)cc1 (stereo not given) .
output: 10 µM (inconclusive)

input: What measured AC50 goes with COc1ccc(-c2cc(C(F)(F)F)nc(N3CCN(C)CC3)n2)cc1OC ?
output: 28.2 µM (inconclusive)

input: Entry O=C(c1ccco1)N1CCC[C@@]2(CCN(c3ccncc3)C2)C1 has what AC50?
output: 25.1 µM (inconclusive)

input: Which AC50 is listed for Cc1ccc(N(C(C)C(=O)Nc2cc(Cl)ccc2Oc2ccccc2)S(C)(=O)=O)cc1 (stereo not given) ?
output: 15.8 µM (inconclusive)

input: Param item = CN1CCN(CCCN2c3ccccc3Sc3ccc(S(=O)(=O)N(C)C)cc32)CC1 [THIOPROPERAZINE MESYLATE] ; retrieve measured AC50.
output: 6.31 µM (inconclusive)
